These entries and their values trace back to patent US8759318B2.

assay: Protide stability in normal plasma, cynomolgous monkey; assay type: in vitro ADME; conditions: 37° C., 1.5 h
quantity: % Compound Remaining Compared to %100 Acetonitrile Control (%)
Note: unit % is implicit; provide only the numeric part.

Observe how each entry below is paired with its result.
Briefly, % Compound Remaining Compared to %100 Acetonitrile Control measured for COc1nc(N)nc2c1ncn2C1O[C@H](COP(=O)(N[C@H](C(=O)OCC(C)(C)C)C(C)C)Oc2c(C)ccc3ccccc23)[C@@H](O)[C@@]1(C)O (some centres unmarked) [Example 54] : 124.2

Briefly, % Compound Remaining Compared to %100 Acetonitrile Control measured for C[C@H](NP(=O)(OC[C@H]1OC(n2cnc3c(=O)[nH]c(N)nc32)[C@](C)(O)[C@@H]1O)Oc1cccc2ccccc12)C(=O)OCC(C)(C)C (some centres unmarked) [A, reference compound] : 102.4

Briefly, % Compound Remaining Compared to %100 Acetonitrile Control measured for COc1nc(N)nc2c1ncn2C1O[C@H](COP(=O)(N[C@@H](C)C(=O)OCC(C)(C)C)Oc2cccc3ccccc23)[C@@H](O)[C@@]1(C)O (some centres unmarked) [Example 20] : 94.0

Further cases:
Briefly, % Compound Remaining Compared to %100 Acetonitrile Control measured for COc1nc(N)nc2c1ncn2C1O[C@H](COP(=O)(N[C@@H](C)C(=O)OCc2ccccc2)Oc2cccc3ccccc23)[C@@H](O)[C@@]1(C)O (some centres unmarked) [Example 13] : 77.0

Briefly, % Compound Remaining Compared to %100 Acetonitrile Control measured for COc1nc(N)nc2c1ncn2C1O[C@H](COP(=O)(N[C@H](C(=O)OC2CCOCC2)C(C)C)Oc2cccc3ccccc23)[C@@H](O)[C@@]1(C)O (some centres unmarked) [Example 47] : 118.5
